Origin of values: PubChem BioAssay

Tested on: XIP peptide (Xip251-270)
Assay: small-molecule binders of XIP peptide, primary screen, biochemical, small-molecule microarray, fluorescence 635/667 nm, 0.5 µg/mL protein (AID 1183)
Settings: small-molecule microarray binding, fluorescence 635 nm; higher = more signal
param class (str): category from composite z-score; see ranges class 1 (below 0.3), class 2 (0.3 to below 0.6), class 3 (0.6 or more)

Compound: CO[C@@H]1COC(=O)CC=C[C@H](C)[C@H](OC)COC(=O)[C@H](C)NC(=O)CC=C[C@H]1C
Measurement Target: XIP peptide (Xip251-270)
Class: class 3

Alright, here's another compound for you.
Quick check: band for "O=C1[C@H]2[C@H]3[C@H](O)[C@H](O)CC(=NOC[C@@H](O)COCc4ccco4)[C@@H]3CC[C@H]2C(=O)N1C[C@@H]1CCCO1"
class 3
